# System tested: NMDA receptor (rat brain receptor expressed in Xenopus oocytes) (Rattus norvegicus, UniProt P35439)
# Construct: PolyA+ RNA (mRNA) was extracted from adult male rat cortex; expressed in transfected cells; host or cells: Xenopus laevis oocytes microinjected with rat cortex poly(A)+ RNA
# Test summary: Xenopus oocytes injected with rat cortex mRNA, blocking of glycine effects (voltage clamp)
# Format: cell-based
# Particulars: IC50, 10 μM Gly, 10 μM glycine, 100 μM NMDA
pIC50: −log10 of the molar value.
Quantity kind: pIC50

>>> meas_value("CCOC(=O)Cc1c(C(=O)O)[nH]c2cc(Cl)ccc12 [compound 31, ethyl 2-carboxy-6-chloro-3-indoleacetate]")
4.79

(I) O=C(O)Cc1c(C(=O)O)[nH]c2cc(Cl)ccc12
(II) CC(C)OC(=O)Cc1c(C(=O)O)[nH]c2cc(Cl)ccc12
Quick check, higher pIC50 between I and II ? Respond using the label that marks the chosen record. I
